Test system: PBMC
assay-method-text: Inhibition of LPS-induced TNFalpha production in human PBMC preincubated 1 hr prior to LPS stimulation measured after 18 to 20 hrs by ELISA
Type: functional, cell-based
pIC50 overview
Bear in mind: pIC50 is minus log10 of a mol/L concentration; give just that figure.

Sample answers from the record:
C#CC=C(c1cc(OC)cc(OC)c1)c1ccc(OC)c(OC)c1 ... 5.14
CC=C(c1ccc(OC)c(N)c1)c1ccc(OC)c(OCC)c1 ... 5.55
COc1cc(OC)cc(C(=CC#N)c2ccc(OC)c(N)c2)c1 ... 7.96

*Q* Requested read-out: pIC50. Entry: C=C(c1cc(OC)cc(OC)c1)c1ccc(OC)c(OC)c1
*A* 5.32

*Q* Query COc1cc(OC)cc(/C(=C/C#N)c2ccc(OC)c(OC)c2)c1 next
*A* 6.19

*Q* Query C=C(c1ccc(OC)c(O)c1)c1ccc(OC)c(OCC)c1 next
*A* 7.54

*Q* Query CCOc1cc(C(=CC#N)c2ccc(S(C)(=O)=O)cc2)ccc1OC next
*A* 6.89

###

Test system: PBMC
assay-method-text: Inhibition of LPS-induced TNFalpha production in human PBMC preincubated 1 hr prior to LPS stimulation measured after 18 to 20 hrs by ELISA
Type: functional, cell-based
outcome-measure: IC50 (nM)
Provide only the numeric value, understood in nM.

Sample answers from the record:
COc1cc(OC)cc(C(=CC#N)c2ccc(OC)c(NC(C)=O)c2)c1 ... 66
CCOc1cc(C(=C(F)F)c2ccc(OC)c(O)c2)ccc1OC ... 54
COc1ccc(C(=CC#N)c2cc(OC)c(OC)c(OC)c2)cc1OC ... 540
COc1cc(OC)cc(C(=CC#N)c2ccc(OC)c(OC)c2)c1 ... 270
CCOc1cc(C(=CC#N)c2ccc(OC)c(NC(=O)CN)c2)ccc1OC.Cl ... 31

*Q* Requested read-out: IC50. Entry: COc1cc(OC)cc(C(=C(C)C)c2ccc(OC)c(O)c2)c1
*A* 7000

*Q* Query COc1ccc(C(=CC#N)c2ccc(OC)c(OC)c2)cc1 next
*A* 350

*Q* Query COc1cccc(C(=CC#N)c2cc(OC)cc(OC)c2)c1 next
*A* 290

*Q* Query COc1cc(OC)cc(C(=CC(N)=O)c2ccc(OC)c(OC)c2)c1 next
*A* 5500

*Q* Query CCOc1cc(C(=CC#N)c2ccc(OC)c(O)c2)ccc1OC next
*A* 44

###

target-entity: Phosphodiesterase 4 (Homo sapiens, UniProt P27815+Q08499+Q07343+Q08493)
assay-method-text: Inhibition of human PDE4 expressed in U937 cells using [3H]cAMP as substrate after 30 mins
cond: u-937
outcome-measure: IC50 (µM)
Provide only the numeric value, understood in µM.

CCOc1cc(C(=CC#N)c2ccc(OC)c(N)c2)ccc1OC ... 0.047
COc1cc(OC)cc(C(=CC(N)=O)c2ccc(OC)c(OC)c2)c1 ... 6.7
CCC=C(c1cc(OC)cc(OC)c1)c1ccc(OC)c(OC)c1 ... 2
CCOc1cc(C(=CC#N)c2ccc(OC)c(OCC)c2)ccc1OC ... 0.07
CCOc1cc(C(=CC#N)c2ccc(NC)cc2)ccc1OC ... 0.041

Consider now this further compound.
*Q* Requested read-out: IC50. Entry: CCOc1cc(C(=CC#N)c2ccc(OC)c(OC(=O)CN)c2)ccc1OC.Cl
*A* 0.049

Hello, the source for this data is ChEMBL document CHEMBL1914453, in case you need it.
